Every entry's value here was drawn from patent US20230172921A1.

// Kp lookup, one value per entry
RUN DESCRIPTION: Lung/blood distribution ratio in rat
Type: in vivo
APPLIED CONDITIONS: lung and blood
Structures can show the parent of a compound that is named as a salt.
MEASURED PARAMETER: Kp

- CC(O)c1ccc(CCOc2ccc(CC3SC(=O)NC3=O)cc2)nc1 (racemic) [MIN-102, hydrochloride]: 0.83
- CCc1ccc(CCOc2ccc(CC3SC(=O)NC3=O)cc2)nc1 (centres unmarked) [Pioglitazone, reference compound]: 0.3
